- assayName: Clearance in rat at 1.1 mg/kg, iv and 2.0 mg/kg, po
- Format: ADME, organism-based
- conditionSummary: in vivo
recordedMetric: clearance (mL/min/kg)
Your answer is read as mL/min/kg, so omit the unit and give the number.

Query string: Using the record for `C[C@H]1CN(S(=O)(=O)C[C@]23CC[C@H](CC2=O)C3(C)C)CCN1c1ncc(C(F)(F)F)cc1F` , report its clearance.
Result string: 108

====

Protein target, amino acids: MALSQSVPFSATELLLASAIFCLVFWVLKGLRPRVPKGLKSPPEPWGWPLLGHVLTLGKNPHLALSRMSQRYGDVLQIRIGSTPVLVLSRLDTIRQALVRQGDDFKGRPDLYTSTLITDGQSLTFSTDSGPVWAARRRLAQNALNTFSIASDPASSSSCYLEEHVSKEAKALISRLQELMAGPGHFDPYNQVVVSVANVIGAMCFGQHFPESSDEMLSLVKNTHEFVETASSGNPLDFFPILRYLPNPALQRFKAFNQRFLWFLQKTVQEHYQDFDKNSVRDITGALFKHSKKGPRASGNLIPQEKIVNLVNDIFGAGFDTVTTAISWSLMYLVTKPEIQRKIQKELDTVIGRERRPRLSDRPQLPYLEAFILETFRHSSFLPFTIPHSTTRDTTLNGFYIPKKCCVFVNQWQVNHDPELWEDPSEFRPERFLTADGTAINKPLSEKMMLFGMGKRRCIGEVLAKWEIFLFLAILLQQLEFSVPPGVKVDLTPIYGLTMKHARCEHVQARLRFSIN
recordedMetric: IC50 (nM)
Your answer is read as nM, so omit the unit and give the number.

Query string: Using the record for `C[C@H]1CN(S(=O)(=O)C[C@]23CC[C@H](CC2=O)C3(C)C)CCN1c1ncc(C(F)(F)F)cc1F` , report its IC50.
Result string: 160
